Quick list: viability at 28.5 h, 10 µM per entry.
assay: in vitro; conditions: human, hela cells, % viability
A number alone suffices; assume %.

stdin: Name the recorded viability at 28.5 h, 10 µM of the item Nc1nc(O)c2c(n1)NC1(CCC1)[C@@H]1C[C@@H](O)[C@@H](O)[C@H]21 in your answer.
stdout: 118

stdin: Name the recorded viability at 28.5 h, 10 µM of the item O=C(OCc1ccc2sccc2c1)N1CCOCC1 in your answer.
stdout: 101

stdin: Name the recorded viability at 28.5 h, 10 µM of the item Cn1ccnc1C1(O)C2CCCC1CN(Cc1ccccc1F)C2 (stereo not shown) in your answer.
stdout: 97.2

stdin: Name the recorded viability at 28.5 h, 10 µM of the item CS(=O)(=O)c1cccc(C(=O)n2c(=O)n(CC3CCCCC3)c3ccccc32)c1 in your answer.
stdout: 103

stdin: Name the recorded viability at 28.5 h, 10 µM of the item CC(C)n1cc(CN2CC3C[C@@H](O)CN3C[C@H]2C)c2ccccc21 (stereo partly shown) in your answer.
stdout: 107

stdin: Name the recorded viability at 28.5 h, 10 µM of the item COc1ccc(CNC(=O)NC(=O)C2CCN(C(C)=O)CC2)c(OC)c1 in your answer.
stdout: 96.9

Further cases:
stdin: Name the recorded viability at 28.5 h, 10 µM of the item Cc1cccc(CC(=O)N2CCC(Cc3ccccc3-c3ccccc3)(C(N)=O)CC2)c1 in your answer.
stdout: 103

stdin: Name the recorded viability at 28.5 h, 10 µM of the item Cc1cc(NC(=O)Cc2ccc(Cl)c(Cl)c2)c2ccccc2n1 in your answer.
stdout: 99.3

stdin: Name the recorded viability at 28.5 h, 10 µM of the item CSCCC(C(=O)O)N1C(=O)C(=Cc2ccc(-c3cccc(Cl)c3)o2)SC1=S (stereo not shown) in your answer.
stdout: 99.3

stdin: Name the recorded viability at 28.5 h, 10 µM of the item CCn1cc(C(=O)Nc2nccs2)c(=O)c2ccc(C)nc21 in your answer.
stdout: 78.3

stdin: Name the recorded viability at 28.5 h, 10 µM of the item CCOC(=O)COc1cccc(/C=C2/SC(=S)N(c3cccc(C(=O)O)c3)C2=O)c1 in your answer.
stdout: 98.3

stdin: Name the recorded viability at 28.5 h, 10 µM of the item CCCC(=O)N1CCC(c2cc(C(F)F)c3c(C)noc3n2)CC1 in your answer.
stdout: 102
